Source of measurements: ChEMBL document CHEMBL1130437

- study.target: D(4) dopamine receptor (Homo sapiens, UniProt P21917)
- Sequence (P21917 whole entry): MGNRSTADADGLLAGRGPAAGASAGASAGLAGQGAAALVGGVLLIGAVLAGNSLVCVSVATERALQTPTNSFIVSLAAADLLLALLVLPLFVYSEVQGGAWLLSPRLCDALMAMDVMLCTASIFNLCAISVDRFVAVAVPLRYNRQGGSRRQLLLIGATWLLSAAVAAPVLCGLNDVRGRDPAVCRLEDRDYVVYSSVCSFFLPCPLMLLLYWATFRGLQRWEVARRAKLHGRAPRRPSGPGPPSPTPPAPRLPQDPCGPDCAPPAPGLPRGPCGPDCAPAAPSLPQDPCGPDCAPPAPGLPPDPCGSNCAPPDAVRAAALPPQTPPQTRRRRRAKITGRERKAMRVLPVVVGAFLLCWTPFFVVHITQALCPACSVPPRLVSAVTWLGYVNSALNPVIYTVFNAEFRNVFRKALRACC
- protocol: Binding affinity against human cloned D4 receptor transfected in CHO-K1 cells by [3H]- spiperone displacement.
quantity.kind: Ki (nM)

// below: answered compounds
1. COC(COc1cccc2ccccc12)CN1CCC(Cc2ccccc2)CC1 (stereo unspecified) :: 45
2. O[C@@H](COc1ccccc1)CN1CCC(Oc2ccccc2)CC1 :: 2
3. COc1ccc(OCC(O)CN2CCC(Cc3ccccc3)CC2)cc1 (stereo unspecified) :: 123
4. OC(COc1cccc2ccccc12)CN1CCC(Cc2ccccc2)CC1 (stereo unspecified) :: 26
5. OC(COc1ccc(Cl)cc1)CN1CCC(Cc2ccccc2)CC1 (stereo unspecified) :: 18
6. CC(COc1cccc2ccccc12)CN1CCC(Cc2ccccc2)CC1 (stereo unspecified) :: 72
7. O=[N+]([O-])c1ccc(OCC(O)CN2CCC(Cc3ccccc3)CC2)cc1 (stereo unspecified) :: 59
8. OC(COc1cccc2ccccc12)CN1CCC(Cc2ccc(Cl)cc2)CC1 (stereo unspecified) :: 45

1 = OC(COc1cccc2ccccc12)CN1CCC(Oc2ccccc2)CC1 (stereo unspecified)
2 = COc1ccc(CC2CCN(CC(O)COc3cccc4ccccc34)CC2)cc1 (stereo unspecified)
**Query** Of the pair 1 and 2 , name the member with the lesser recorded Ki. Lab note: record the label of whichever item you select.
**Result** 1

###

- study.target: D(3) dopamine receptor (Homo sapiens, UniProt P35462)
- Sequence (P35462 whole entry): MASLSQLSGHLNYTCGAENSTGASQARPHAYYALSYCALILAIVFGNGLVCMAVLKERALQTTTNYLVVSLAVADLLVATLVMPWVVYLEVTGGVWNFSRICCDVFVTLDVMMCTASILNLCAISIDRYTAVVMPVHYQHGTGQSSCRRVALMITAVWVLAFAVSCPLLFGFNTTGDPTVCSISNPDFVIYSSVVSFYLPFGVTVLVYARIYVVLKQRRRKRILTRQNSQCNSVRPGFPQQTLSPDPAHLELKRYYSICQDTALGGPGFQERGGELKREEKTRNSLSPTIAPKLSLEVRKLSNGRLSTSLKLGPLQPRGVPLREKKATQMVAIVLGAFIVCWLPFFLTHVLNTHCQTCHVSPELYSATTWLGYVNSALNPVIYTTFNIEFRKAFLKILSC
- protocol: Binding affinity against cloned human D3 receptor transfected in CHO-K1 cells using [3H]- spiperone as radioligand.
quantity.kind: Ki (nM)

1. O[C@H](COc1ccccc1)CN1CCC(Oc2ccccc2)CC1 :: 457

A = O[C@@H](COc1ccccc1)CN1CCC(Oc2ccccc2)CC1
B = OC(COc1ccccc1)CN1CCC(Oc2ccccc2)CC1 (racemic)
**Query** Of the pair A and B , name the member with the lesser recorded Ki. Lab note: record the label of whichever item you select.
**Result** A

###

- study.target: D(2) dopamine receptor (Homo sapiens)
- Sequence (P14416 whole entry): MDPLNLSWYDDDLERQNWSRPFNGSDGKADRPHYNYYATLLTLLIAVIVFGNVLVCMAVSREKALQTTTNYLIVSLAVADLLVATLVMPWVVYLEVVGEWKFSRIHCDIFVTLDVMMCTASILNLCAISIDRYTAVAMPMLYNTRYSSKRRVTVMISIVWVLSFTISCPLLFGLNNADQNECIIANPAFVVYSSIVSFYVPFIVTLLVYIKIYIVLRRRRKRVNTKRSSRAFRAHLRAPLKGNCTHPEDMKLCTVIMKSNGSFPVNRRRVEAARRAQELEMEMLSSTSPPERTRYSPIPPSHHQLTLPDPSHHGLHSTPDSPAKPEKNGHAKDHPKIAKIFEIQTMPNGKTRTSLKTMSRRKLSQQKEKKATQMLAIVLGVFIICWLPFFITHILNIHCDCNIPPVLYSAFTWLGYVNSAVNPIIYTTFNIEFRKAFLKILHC
- protocol: Binding affinity against cloned human D2 receptor transfected in CHO-K1 cells using [3H]- spiperone as radioligand.
quantity.kind: Ki (µM)

// below: answered compounds
1. O[C@H](COc1ccccc1)CN1CCC(Oc2ccccc2)CC1 :: 0.709
2. OC(COc1ccccc1)CN1CCC(Oc2ccccc2)CC1 (racemic) :: 0.911

I = O[C@@H](COc1ccccc1)CN1CCC(Oc2ccccc2)CC1
II = OC(COc1cccc2ccccc12)CN1CCC(Cc2ccccc2)CC1 (stereo not given)
III = OC(COc1cccc2ccccc12)CN1CCC(Oc2ccccc2)CC1 (stereo not given)
**Query** Put the compounds in ascending order of Ki. Would you mind listing the labels in the order asked for?
**Result** I, II, III

###

- study.target: D(4) dopamine receptor (Homo sapiens, UniProt P21917)
- protocol: Binding affinity against human cloned D4 receptor transfected in CHO-K1 cells by [3H]- spiperone displacement.
quantity.kind: Ki (nM)

// below: answered compounds
1) Cc1ccc(CC2CCN(CC(O)COc3cccc4ccccc34)CC2)cc1 (stereo unspecified) :: 52
2) OC(COc1ccccc1)CN1CCC(Oc2ccccc2)CC1 (racemic) :: 3.6
3) OC(COc1cccc2ccccc12)CN1CCC(Cc2ccc(F)cc2)CC1 (stereo unspecified) :: 32
4) O[C@H](COc1ccccc1)CN1CCC(Oc2ccccc2)CC1 :: 11.6

I = c1ccc(CC2CCN(CCCOc3cccc4ccccc34)CC2)cc1
II = OC(COc1ccccc1)CN1CCC(Cc2ccccc2)CC1 (stereo unspecified)
**Query** Of the pair I and II , name the member with the lesser recorded Ki. Lab note: record the label of whichever item you select.
**Result** II
(II: 34 nM, I: 50 nM)
